TARGET UNDER TEST: Human recombinant PDE3A (hPDE3A) (Homo sapiens, UniProt Q14432)
Construct: purchased Scottish Biomedical; host or cells: Sf9 insect cells
Sequence (Q14432 whole entry): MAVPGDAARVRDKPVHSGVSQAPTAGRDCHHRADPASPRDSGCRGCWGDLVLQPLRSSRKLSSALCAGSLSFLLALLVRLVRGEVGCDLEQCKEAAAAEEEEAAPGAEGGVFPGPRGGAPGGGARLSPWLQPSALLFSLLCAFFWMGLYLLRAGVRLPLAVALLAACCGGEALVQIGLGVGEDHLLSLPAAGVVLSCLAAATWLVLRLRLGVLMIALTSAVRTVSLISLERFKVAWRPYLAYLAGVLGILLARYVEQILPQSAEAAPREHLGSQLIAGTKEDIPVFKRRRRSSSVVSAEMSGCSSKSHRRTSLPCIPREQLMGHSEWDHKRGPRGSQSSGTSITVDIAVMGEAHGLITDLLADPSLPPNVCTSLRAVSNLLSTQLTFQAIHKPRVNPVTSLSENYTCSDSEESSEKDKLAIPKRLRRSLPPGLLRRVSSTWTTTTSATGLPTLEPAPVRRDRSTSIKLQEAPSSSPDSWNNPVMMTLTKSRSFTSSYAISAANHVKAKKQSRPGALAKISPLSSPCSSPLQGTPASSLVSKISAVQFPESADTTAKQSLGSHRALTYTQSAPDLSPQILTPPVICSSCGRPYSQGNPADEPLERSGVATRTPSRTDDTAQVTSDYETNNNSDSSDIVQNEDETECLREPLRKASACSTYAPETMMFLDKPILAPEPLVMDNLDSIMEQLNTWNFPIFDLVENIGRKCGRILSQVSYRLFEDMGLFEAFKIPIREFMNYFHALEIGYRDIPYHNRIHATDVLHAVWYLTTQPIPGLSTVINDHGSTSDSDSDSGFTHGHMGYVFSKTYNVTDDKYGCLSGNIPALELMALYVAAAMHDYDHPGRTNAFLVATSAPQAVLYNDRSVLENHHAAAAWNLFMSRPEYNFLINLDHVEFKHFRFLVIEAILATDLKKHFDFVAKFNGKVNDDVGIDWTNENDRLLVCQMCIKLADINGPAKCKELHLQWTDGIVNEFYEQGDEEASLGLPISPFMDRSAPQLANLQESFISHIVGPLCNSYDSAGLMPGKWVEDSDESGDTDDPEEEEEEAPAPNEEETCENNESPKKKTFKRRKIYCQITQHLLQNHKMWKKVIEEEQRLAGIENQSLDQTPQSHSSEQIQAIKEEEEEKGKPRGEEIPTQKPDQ
ASSAY REMARKS: In vitro assay PDE3A (SPA, 3H-cAMP hydrolysis);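 also: the method names PDE3A and the table heading PDE3B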
Assay type: biochemical
MEASUREMENT CONTEXT: hPDE3B pIC50; read-out: pIC50 (converted)
Give measured IC50 for each item. Keep answers brief.
Express it in µM; write the number only.

For the compound shown here, `Cc1cc([C@@H]2CN(C(=O)c3cccc4nc(C)oc34)CC[C@H]2C)n2ncnc2n1` , give the reported IC50. 3.09

For the compound shown here, `C[C@@H]1CCN(C(=O)c2c(F)cccc2F)C[C@H]1c1cc(C(F)F)nc2ncnn12` , give the reported IC50. 5.13

For the compound shown here, `O=C(c1ccc2c(c1)OC(F)(F)O2)N1[C@H]2CC[C@H](c3cc(C(F)F)nc4ncnn34)[C@@H]1CC2` , give the reported IC50. 4.9

For the compound shown here, `C[C@@H]1CCN(C(=O)c2ccc(O)c(F)c2)C[C@H]1c1cc(C(F)F)nc2ncnn12` , give the reported IC50. 5.13

* * *

TARGET UNDER TEST: Human recombinant PDE2A (hPDE2A) (Homo sapiens)
Construct: His tag (inferred from metal chelate purification); made in house; host or cells: Sf9 insect cells (baculovirus)
Sequence (O00408 whole entry): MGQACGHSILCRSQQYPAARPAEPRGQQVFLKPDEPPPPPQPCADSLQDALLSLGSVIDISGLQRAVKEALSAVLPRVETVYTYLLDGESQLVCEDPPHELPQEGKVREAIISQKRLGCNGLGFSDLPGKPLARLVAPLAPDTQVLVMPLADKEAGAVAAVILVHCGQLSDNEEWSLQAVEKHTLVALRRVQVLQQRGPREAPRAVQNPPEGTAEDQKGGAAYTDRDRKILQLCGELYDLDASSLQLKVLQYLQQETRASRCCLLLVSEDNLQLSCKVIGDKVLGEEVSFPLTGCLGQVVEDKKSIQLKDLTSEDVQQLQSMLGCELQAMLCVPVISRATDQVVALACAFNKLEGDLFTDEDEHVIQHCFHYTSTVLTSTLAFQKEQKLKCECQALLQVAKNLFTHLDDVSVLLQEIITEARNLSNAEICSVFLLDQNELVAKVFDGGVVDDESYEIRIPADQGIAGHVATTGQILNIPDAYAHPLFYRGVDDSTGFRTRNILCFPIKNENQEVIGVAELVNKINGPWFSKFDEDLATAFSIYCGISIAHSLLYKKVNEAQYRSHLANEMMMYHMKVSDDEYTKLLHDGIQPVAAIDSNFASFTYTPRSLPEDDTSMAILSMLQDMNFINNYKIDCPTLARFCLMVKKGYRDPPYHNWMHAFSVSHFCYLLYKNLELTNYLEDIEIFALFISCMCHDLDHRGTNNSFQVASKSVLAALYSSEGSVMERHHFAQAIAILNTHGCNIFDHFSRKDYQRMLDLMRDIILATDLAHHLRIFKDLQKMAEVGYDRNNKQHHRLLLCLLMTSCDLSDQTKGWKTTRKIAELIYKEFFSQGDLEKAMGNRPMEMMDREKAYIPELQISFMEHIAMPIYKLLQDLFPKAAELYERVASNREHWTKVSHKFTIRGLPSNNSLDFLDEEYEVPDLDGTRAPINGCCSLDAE
ASSAY REMARKS: In vitro assay PDE2A (SPA, 3H-cGMP hydrolysis)
Assay type: biochemical
MEASUREMENT CONTEXT: read-out: hPDE2A pIC50 (converted)
Classify: condition met when IC50 is strictly less than 0.008 µM; condition not met when IC50 is not.

Hello, is IC50 of the following compound strictly smaller than 0.008 µM? C[C@@H]1CCN(C(=O)c2ccncc2Cl)C[C@H]1c1cc(C(F)F)nc2ncnn12 [Compound 235] condition not met

Hello, is IC50 of the following compound strictly smaller than 0.008 µM? CCCC[C@H]1CCN(C(=O)c2cc(C)nc(C)c2)C[C@H]1c1cc(C(F)F)nc2ncnn12 (mixture of isomers) [Compound 219] condition not met

Hello, is IC50 of the following compound strictly smaller than 0.008 µM? O=C(c1cccc2ncccc12)N1[C@H]2CC[C@H](c3cc(C(F)F)nc4ncnn34)[C@@H]1CC2 [Compound 315] condition not met

Hello, is IC50 of the following compound strictly smaller than 0.008 µM? O=C(c1ccc(Cl)c(Cl)c1)N1[C@H]2CC[C@H](c3cc(C(F)F)nc4ncnn34)[C@@H]1CC2 [Compound 356] condition met

Hello, is IC50 of the following compound strictly smaller than 0.008 µM? O=C(c1ccc(OC(F)(F)F)c(F)c1)N1[C@H]2CC[C@H](c3cc(C(F)F)nc4ncnn34)[C@@H]1CC2 [Compound 342] condition not met

* * *

TARGET UNDER TEST: Human recombinant PDE3A (hPDE3A) (Homo sapiens)
Construct: purchased Scottish Biomedical; host or cells: Sf9 insect cells
ASSAY REMARKS: In vitro assay PDE3A (SPA, 3H-cAMP hydrolysis);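 also: the method names PDE3A and the table heading PDE3B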
Assay type: biochemical
MEASUREMENT CONTEXT: read-out: hPDE3B Emax; read-out: Emax
Give measured Emax for each item. Keep answers brief.
Express it in %; write the number only.

For the molecule shown here, `Cc1cc2cc(C(=O)N3[C@H]4CC[C@H](c5cc(C(F)F)nc6ncnn56)[C@@H]3CC4)ccc2n1C` , give the reported Emax. 97

For the molecule shown here, `O=C(c1ccc(F)c(Cl)c1)N1[C@H]2CC[C@H](c3cc(C(F)F)nc4ncnn34)[C@@H]1CC2` , give the reported Emax. 47

For the molecule shown here, `Cc1cc(C(=O)N2CC[C@@H](C)[C@H](c3cc(C)nc4ncnn34)C2)cc(C)n1` , give the reported Emax. 65

For the molecule shown here, `O=C(c1ccc(F)c(F)c1)N1[C@H]2CC[C@H](c3cc(C(F)F)nc4ncnn34)[C@@H]1CC2` , give the reported Emax. 43

* * *

TARGET UNDER TEST: Human recombinant PDE10A (hPDE10A) (Homo sapiens)
Construct: His tag (inferred from metal chelate purification); made in house; host or cells: Sf9 insect cells (baculovirus)
ASSAY REMARKS: In vitro assay PDE10A, human clone (SPA, 3H-cAMP hydrolysis)
Assay type: biochemical
MEASUREMENT CONTEXT: human clone (h), default; read-out: hPDE10A2 Emax
Give measured Emax for each item. Keep answers brief.
Express it in %; write the number only.

Given the entry `C[C@@H]1CCN(C(=O)c2ccc(O)nn2)C[C@H]1c1cc(C(F)F)nc2ncnn12` , what Emax was observed with Human recombinant PDE10A (hPDE10A) (Homo sapiens)? 58

Given the entry `Cc1cc([C@@H]2CN(C(=O)c3ccc4occc4c3)CC[C@H]2C)n2ncnc2n1` , what Emax was observed with Human recombinant PDE10A (hPDE10A) (Homo sapiens)? 100

Given the entry `COc1nc(C)c(C(=O)N2CC[C@@H](C)[C@H](c3cc(C(F)F)nc4ncnn34)C2)s1` , what Emax was observed with Human recombinant PDE10A (hPDE10A) (Homo sapiens)? 87

Given the entry `C[C@@H]1CCN(C(=O)c2ccc(Br)cn2)C[C@H]1c1cc(C(F)F)nc2ncnn12` , what Emax was observed with Human recombinant PDE10A (hPDE10A) (Homo sapiens)? 89

Given the entry `C[C@@H]1CCN(C(=O)c2ccc3c(ccn3CCF)c2)C[C@H]1c1cc(C(F)F)nc2ncnn12` , what Emax was observed with Human recombinant PDE10A (hPDE10A) (Homo sapiens)? 101

Given the entry `COc1cc(C(=O)N2CC[C@@H](C)[C@H](c3cc(C(F)F)nc4ncnn34)C2)cc(C2CC2)n1` , what Emax was observed with Human recombinant PDE10A (hPDE10A) (Homo sapiens)? 99

Given the entry `C[C@@H]1CCN(C(=O)c2cccc3ncoc23)C[C@H]1c1cc(C(F)F)nc2ncnn12` , what Emax was observed with Human recombinant PDE10A (hPDE10A) (Homo sapiens)? 88

* * *

TARGET UNDER TEST: Human recombinant PDE10A (hPDE10A) (Homo sapiens, UniProt Q9Y233)
Construct: His tag (inferred from metal chelate purification); made in house; host or cells: Sf9 insect cells (baculovirus)
Sequence (Q9Y233 267-1055): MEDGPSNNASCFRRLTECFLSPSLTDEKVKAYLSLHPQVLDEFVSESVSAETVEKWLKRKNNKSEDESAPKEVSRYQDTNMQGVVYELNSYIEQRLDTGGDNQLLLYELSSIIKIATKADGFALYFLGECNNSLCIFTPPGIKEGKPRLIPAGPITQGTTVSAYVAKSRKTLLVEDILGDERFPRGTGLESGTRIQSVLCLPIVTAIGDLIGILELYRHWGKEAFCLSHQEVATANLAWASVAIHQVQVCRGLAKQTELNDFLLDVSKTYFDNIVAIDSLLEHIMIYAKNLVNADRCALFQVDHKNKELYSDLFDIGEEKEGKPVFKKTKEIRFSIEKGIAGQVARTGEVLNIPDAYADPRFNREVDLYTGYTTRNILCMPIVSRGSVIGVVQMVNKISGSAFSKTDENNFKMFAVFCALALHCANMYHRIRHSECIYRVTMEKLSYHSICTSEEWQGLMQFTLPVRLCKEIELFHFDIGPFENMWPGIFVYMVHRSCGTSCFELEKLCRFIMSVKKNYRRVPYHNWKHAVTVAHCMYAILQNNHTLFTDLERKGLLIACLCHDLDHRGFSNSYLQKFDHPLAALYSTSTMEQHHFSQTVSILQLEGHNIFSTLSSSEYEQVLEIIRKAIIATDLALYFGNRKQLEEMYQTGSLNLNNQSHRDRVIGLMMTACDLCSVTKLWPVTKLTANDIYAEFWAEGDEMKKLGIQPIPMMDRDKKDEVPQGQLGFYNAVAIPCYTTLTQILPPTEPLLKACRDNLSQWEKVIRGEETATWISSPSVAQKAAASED
ASSAY REMARKS: In vitro assay PDE10A, human clone (SPA, 3H-cAMP hydrolysis)
Format: biochemical
MEASUREMENT CONTEXT: human clone by default (no (r) mark); read-out: hPDE10A2 or rPDE10A2 Emax
MEASURE: Emax (%)
Express it in %; write the number only.

For the molecule shown here, `COc1cc(C(=O)N2[C@H]3CC[C@H](c4cc(C(F)F)nc5ncnn45)[C@@H]2CC3)ccc1Cl` , give the reported Emax. 87

For the molecule shown here, `Cc1nc(C(=O)N2CC[C@H](C)[C@H](c3cc(C(F)F)nc4ncnn34)C2)ccc1F` , give the reported Emax. 71

For the molecule shown here, `Cc1cc(C(=O)N2[C@H]3CC[C@H](c4cc(C(F)F)nc5ncnn45)[C@@H]2CC3)cnc1C` , give the reported Emax. 64

For the molecule shown here, `COc1cc(C(=O)N2CC[C@@H](C)[C@H](c3cc(C(F)F)nc4ncnn34)C2)c(F)c(C)n1` , give the reported Emax. 95

For the molecule shown here, `O=C(c1ccc(F)c(OC(F)F)c1)N1[C@H]2CC[C@H](c3cc(C(F)F)nc4ncnn34)[C@@H]1CC2` , give the reported Emax. 72

For the molecule shown here, `Cc1cc(C(=O)N2CC[C@@H](C)[C@H](c3cc(C(F)F)nc4ncnn34)C2)cc(CO)n1` , give the reported Emax. 92

For the molecule shown here, `Cc1cc([C@H]2CN(C(=O)c3ccc4nccn4c3)CC[C@@H]2C)n2ncnc2n1` , give the reported Emax. 67

For the molecule shown here, `Cn1ncc2cc(C(=O)N3[C@H]4CC[C@H](c5cc(C(F)F)nc6ncnn56)[C@@H]3CC4)ccc21` , give the reported Emax. 96

For the molecule shown here, `COc1nc(C2CC2)cc(C(=O)N2CC[C@@H](C)[C@H](c3cc(C(F)F)nc4ncnn34)C2)c1F` , give the reported Emax. 98

For the molecule shown here, `Cc1oncc1C(=O)N1CC[C@@H](C)[C@H](c2cc(C(F)F)nc3ncnn23)C1` , give the reported Emax. 74

For the molecule shown here, `C[C@@H]1CCN(C(=O)c2nccnc2N)C[C@H]1c1cc(C(F)F)nc2ncnn12` , give the reported Emax. 45

For the molecule shown here, `O=C(c1ccc2occc2c1)N1[C@H]2CC[C@H](c3cc(C(F)F)nc4ncnn34)[C@@H]1CC2` , give the reported Emax. 94

For the molecule shown here, `Cc1cccnc1C(=O)N1CC[C@@H](C)[C@H](c2cc(C(F)F)nc3ncnn23)C1` , give the reported Emax. 33

For the molecule shown here, `C[C@@H]1CCN(C(=O)c2cccnc2F)C[C@H]1c1cc(C(F)F)nc2ncnn12` , give the reported Emax. 74

For the molecule shown here, `Cc1cc2cc(C(=O)N3[C@H]4CC[C@H](c5cc(C(F)F)nc6ncnn56)[C@@H]3CC4)ccc2n1C` , give the reported Emax. 99

For the molecule shown here, `Cn1cnc2cc(C(=O)N3[C@H]4CC[C@H](c5cc(C(F)F)nc6ncnn56)[C@@H]3CC4)ccc21` , give the reported Emax. 87

For the molecule shown here, `COc1ccc(C(=O)N2CC[C@@H](C)[C@H](c3cc(C(F)F)nc4ncnn34)C2)cc1C#N` , give the reported Emax. 98

For the molecule shown here, `C[C@@H]1CCN(C(=O)c2ccc(F)nc2)C[C@H]1c1cc(C(F)F)nc2ncnn12` , give the reported Emax. 70

For the molecule shown here, `O=C(c1ccc2sccc2c1)N1[C@H]2CC[C@H](c3cc(C(F)F)nc4ncnn34)[C@@H]1CC2` , give the reported Emax. 96

For the molecule shown here, `Cn1cc(C(=O)N2[C@H]3CC[C@H](c4cc(C(F)F)nc5ncnn45)[C@@H]2CC3)c2ccccc21` , give the reported Emax. 96

For the molecule shown here, `COc1cccc2c1OCC(C(=O)N1CC[C@@H](C)[C@H](c3cc(C(F)F)nc4ncnn34)C1)=C2` , give the reported Emax. 99

For the molecule shown here, `O=C(c1ccc(F)c(F)c1)N1[C@H]2CC[C@H](c3cc(C(F)F)nc4ncnn34)[C@@H]1CC2` , give the reported Emax. 71
